Documented Difference (log2), PP1 vs untreated across a set of molecules
system: GFP-14-3-3β and its binding proteins; assay: GFP-14-3-3β co-IP with LC-MS/MS label-free quantification, untreated versus PP1c-treated; design: species or system human; settings: GFP-14-3-3β co-IP LC-MS/MS; PP1 vs untreated; student's t-test; label-free quantification, 3 replicates each
Form entry: value (log2) — number only.

Recorded results for 5 molecules are shown here.
Request: Difference (log2), PP1 vs untreated lookup needed for SRPRB (protein, UniProt Q9Y5M8 1-271, looked up) Signal recognition particle …: MASADSRRVADGGGAGGTFQPYLDTLRQELQQTDPTLLSVVVAVLAVLLTLVFWKLIRSRRSSQRAVLLVGLCDSGKTLLFVRLLTGLYRDTQTSITDSCAVYRVNNNRGNSLTLIDLPGHESLRLQFLERFKSSARAIVFVVDSAAFQREVKDVAEFLYQVLIDSMGLKNTPSFLIACNKQDIAMAKSAKLIQQQLEKELNTLRVTRSAAPSTLDSSSTAPAQLGKKGKEFEFSQLPLKVEFLECSAKGGRGDVGSADIQDLEKWLAKIA , thanks.
Response: -0.6831

Request: Which measured Difference (log2), PP1 vs untreated value corresponds to DCD (protein, UniProt P81605 20-110, looked up) Dermcidin: YDPEAASAPGSGNPCHEASAAQKENAGEDPGLARQAPKPRKQRSSLLEKGLDGAKKAVGGLGKLGKDAVEDLESVGKGAVHDVKDVLDSVL ?
Response: -0.6713

Request: Endpoint output: Difference (log2), PP1 vs untreated of GEMIN8 (protein, UniProt Q9NWZ8 1-242, looked up) Gem-associated protein 8: MAAVKASTSKATRPWYSHPVYARYWQHYHQAMAWMQSHHNAYRKAVESCFNLPWYLPSALLPQSSYDNEAAYPQSFYDHHVAWQDYPCSSSHFRRSGQHPRYSSRIQASTKEDQALSKEEEMETESDAEVECDLSNMEITEELRQYFAETERHREERRRQQQLDAERLDSYVNADHDLYCNTRRSVEAPTERPGERRQAEMKRLYGDSAAKIQAMEAAVQLSFDKHCDRKQPKYWPVIPLKF . Value?
Response: -0.2137

Request: Form field: reported Difference (log2), PP1 vs untreated of RRP15 (protein, UniProt Q9Y3B9 2-282, looked up) RRP15-like protein: AAAAPDSRVSEEENLKKTPKKKMKMVTGAVASVLEDEATDTSDSEGSCGSEKDHFYSDDDAIEADSEGDAEPCDKENENDGESSVGTNMGWADAMAKVLNKKTPESKPTILVKNKKLEKEKEKLKQERLEKIKQRDKRLEWEMMCRVKPDVVQDKETERNLQRIATRGVVQLFNAVQKHQKNVDEKVKEAGSSMRKRAKLISTVSKKDFISVLRGMDGSTNETASSRKKPKAKQTEVKSEEGPGWTILRDDFMMGASMKDWDKESDGPDDSRPESASDSDT
Response: -0.3533

Request: Difference (log2), PP1 vs untreated lookup needed for BASP1 (protein, UniProt P80723 2-227, looked up) Brain acid soluble protein 1: GGKLSKKKKGYNVNDEKAKEKDKKAEGAATEEEGTPKESEPQAAAEPAEAKEGKEKPDQDAEGKAEEKEGEKDAAAAKEEAPKAEPEKTEGAAEAKAEPPKAPEQEQAAPGPAAGGEAPKAAEAAAAPAESAAPAAGEEPSKEEGEPKKTEAPAAPAAQETKSDGAPASDSKPGSSEAAPSSKETPAATEAPSSTPKAQGPAASAEEPKPVEAPAANSDQTVTVKE , thanks.
Response: -0.7159

Here is another molecule to look at.
Request: Please give the measured Difference (log2), PP1 vs untreated for this molecule: HNRNPC (protein, UniProt P07910 2-306, looked up) Heterogeneous nuclear …: ASNVTNKTDPRSMNSRVFIGNLNTLVVKKSDVEAIFSKYGKIVGCSVHKGFAFVQYVNERNARAAVAGEDGRMIAGQVLDINLAAEPKVNRGKAGVKRSAAEMYGSVTEHPSPSPLLSSSFDLDYDFQRDYYDRMYSYPARVPPPPPIARAVVPSKRQRVSGNTSRRGKSGFNSKSGQRGSSKSGKLKGDDLQAIKKELTQIKQKVDSLLENLEKIEKEQSKQAVEMKNDKSEEEQSSSSVKKDETNVKMESEGGADDSAEEGDLLDDDDNEDRGDDQLELIKDDEKEAEEGEDDRDSANGEDDS
Response: -0.69
